Target: human BLVRB (Homo sapiens)
Construct: pET21
Sequence (P30043 2-206): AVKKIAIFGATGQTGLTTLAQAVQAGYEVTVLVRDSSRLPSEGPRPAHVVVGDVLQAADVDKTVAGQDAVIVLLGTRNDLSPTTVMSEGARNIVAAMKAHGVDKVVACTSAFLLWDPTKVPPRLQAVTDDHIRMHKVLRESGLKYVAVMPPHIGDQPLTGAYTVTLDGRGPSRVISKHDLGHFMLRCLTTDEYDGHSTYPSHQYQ
Assay: isothermal titration calorimetry
Type: binding
Details: read-out: Kd (nM) with NADPH
Excerpt: isothermal titration calorimetry on human BLVRB
quantity: Kd (nM)
// units = nM; emit number, no label

// sample NC(=O)C1=CN([C@@H]2O[C@H](COP(=O)(O)OP(=O)(O)OC[C@H]3O[C@@H](n4cnc5c(N)ncnc54)[C@H](OP(=O)(O)O)[C@@H]3O)[C@@H](O)[C@H]2O)C=CC1 [NADPH] , its Kd was 130

* * *

molecular target: hyrax BLVRB; construct: pET21; experiment: NMR titration ([…]-HSQC); parameters: species or system Procavia capensis; settings: holo form; bis-tris pH 6.5, 20 °C, 900 MHz; read-out: Kd
quantity: Kd

Entry Cc1cc2nc3c(=O)[nH]c(=O)nc-3n(C[C@H](O)[C@H](O)[C@H](O)COP(=O)(O)OP(=O)(O)OC[C@H]3O[C@@H](n4cnc5c(N)ncnc54)[C@H](O)[C@@H]3O)c2cc1C [FAD] : Kd on hyrax BLVRB = 496 µM
